Biological target: human CCR2B (Homo sapiens (Human), UniProt P41597)
Sequence (P41597 other isoform, or with tags, fused parts or gaps): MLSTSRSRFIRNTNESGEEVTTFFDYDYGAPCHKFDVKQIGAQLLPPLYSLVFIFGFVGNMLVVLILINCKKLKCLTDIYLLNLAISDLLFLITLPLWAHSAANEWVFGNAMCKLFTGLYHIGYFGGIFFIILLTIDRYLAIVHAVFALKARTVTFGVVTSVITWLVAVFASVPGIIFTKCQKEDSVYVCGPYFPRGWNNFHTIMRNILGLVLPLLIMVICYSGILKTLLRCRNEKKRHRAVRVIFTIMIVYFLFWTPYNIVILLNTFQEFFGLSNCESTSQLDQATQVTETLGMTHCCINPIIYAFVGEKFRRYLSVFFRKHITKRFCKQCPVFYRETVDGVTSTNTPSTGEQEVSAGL
Assay: Inhibition of [125I]-labeled MCP-1 binding to hCCR2B (radioligand binding in CHO cells)
Settings: mean Ki; [125I]-MCP-1 50 pM; CHO cells expressing human CCR2B and Gα16
Let's look at some compounds and their measured pKi.
# log scale: pKi equals minus log10 of the concentration in mol/L

Examples from the recorded data:
>>> reported_measurement("CC[C@@H]1COCC[C@H]1N[C@@H]1C[C@H]2CCC[C@@]2(C(=O)N2C[C@@H]3C[C@H]2CN3c2cc(C(F)(F)F)ccn2)C1 [Example 66]")
7.89
>>> reported_measurement("CO[C@@H]1COCC[C@@H]1N[C@@H]1C[C@H]2CCC[C@@]2(C(=O)N2C[C@@H]3C[C@H]2CN3C(=O)OC(C)(C)C)C1 [Example 60]")
6.26

// below: pKi requested for another compound
Short answer for CO[C@@H]1COCC[C@@H]1N[C@@H]1C[C@H]2CCC[C@@]2(C(=O)N2C[C@@H]3C[C@H]2CN3c2ccnc(C(F)(F)F)c2)C1 [Example 26] : pKi was 6.10

----------
Target: rat CCR2 (Rattus norvegicus (Rat))
Assay: Inhibition of native agonist (rat MCP-1)-induced intracellular calcium release, calcium flux assay in CHO cells expressing rat CCR2 and Gα16
Assay type: cell-based
Details: read-out: rCCR2 Kb
METRIC_NAME: Kb
Give the value; after it, write the unit.

Short answer for C[C@@H]1COCC[C@@H]1N[C@@H]1C[C@H]2CCC[C@@]2(C(=O)N2C[C@@H]3C[C@H]2CN3c2cc(C(F)(F)F)ccn2)C1 : Kb was 6 nM

Short answer for CO[C@@H]1COCC[C@@H]1N[C@@H]1C[C@H]2CCC[C@@]2(C(=O)N2C[C@@H]3C[C@H]2CN3c2cc(C(F)(F)F)ccn2)C1 : Kb was 12 nM

Short answer for N#Cc1ccc(C(F)(F)F)cc1N1C[C@@H]2C[C@H]1CN2C(=O)[C@@]12CCC[C@@H]1C[C@@H](N1CCC(c3ccccc3)CC1)C2 : Kb was 17 nM

----------
Target: human CCR2B (Homo sapiens (Human))
Experiment: Inhibition of native agonist (human MCP-1)-induced intracellular calcium release, calcium flux assay in CHO cells expressing human CCR2B and Gα16
Format: cell-based
Conditions: calcium flux, human MCP-1 2 nM; read-out: hCCR2B IC50
Let's look at some molecules and their measured IC50.
Give the value; after it, write the unit.

>>> reported_measurement("COc1ccc(N2C[C@@H]3C[C@H]2CN3C(=O)[C@@]23CCC[C@@H]2C[C@@H](N[C@H]2CCOC[C@H]2OC)C3)cc1C(F)(F)F [Example 31]")
"1020 nM"

Short answer for C[C@H]1COCC[C@H]1N[C@@H]1C[C@H]2CCC[C@@]2(C(=O)N2C[C@@H]3C[C@H]2CN3c2cc(C(F)(F)F)ccn2)C1 [Example 62] : IC50 was 445 nM

Short answer for CO[C@@H]1COCC[C@H]1N[C@@H]1C[C@H]2CCC[C@@]2(C(=O)N2C[C@H]3C[C@@H]2CN3c2cc(C(F)(F)F)ccn2)C1 [Example 4] : IC50 was 25000 nM

----------
Target: rat CCR2 (Rattus norvegicus (Rat), UniProt O55193)
Sequence (O55193 whole entry): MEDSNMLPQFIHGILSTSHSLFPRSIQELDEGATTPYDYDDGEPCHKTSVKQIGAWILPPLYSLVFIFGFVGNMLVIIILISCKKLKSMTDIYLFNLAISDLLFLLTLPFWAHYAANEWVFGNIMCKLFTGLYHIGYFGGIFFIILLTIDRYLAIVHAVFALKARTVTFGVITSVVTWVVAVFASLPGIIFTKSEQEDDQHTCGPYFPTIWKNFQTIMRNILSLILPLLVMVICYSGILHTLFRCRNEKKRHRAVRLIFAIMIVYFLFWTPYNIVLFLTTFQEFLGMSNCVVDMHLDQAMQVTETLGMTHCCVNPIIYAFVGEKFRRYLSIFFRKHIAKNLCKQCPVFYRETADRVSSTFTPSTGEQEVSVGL
Experiment: Inhibition of native agonist (rat MCP-1)-induced intracellular calcium release, calcium flux assay in CHO cells expressing rat CCR2 and Gα16
Format: cell-based
Conditions: read-out: rCCR2 Kb
METRIC_NAME: Kb (nM)
Unit nM implied. Number only.

Examples from the recorded data:
>>> reported_measurement("CO[C@@H]1COCC[C@@H]1N(C)[C@@H]1C[C@H]2CCC[C@@]2(C(=O)N2C[C@@H]3C[C@H]2CN3c2cc(C(F)(F)F)cc(C(F)(F)F)c2)C1")
175
>>> reported_measurement("CO[C@@H]1COCC[C@@H]1N[C@@H]1C[C@H]2CCC[C@@]2(C(=O)N2C[C@@H]3C[C@H]2CN3c2ccc(F)c(Cl)c2)C1")
18

// below: Kb requested for another compound
Short answer for C[C@@H]1COCC[C@H]1N[C@@H]1C[C@H]2CCC[C@@]2(C(=O)N2C[C@@H]3C[C@H]2CN3c2cc(C(F)(F)F)ccn2)C1 : Kb was 9

# credit: patent US8906911B2
